These data points were gathered from patent US20240025875A1.

- PROTOCOL: Pharmacokinetic determination in SD rats (i.v. and i.g.)
- Assay type: in vivo
- CONDITION DESCRIPTION: ig, 5 mg/kg
- Protocol: Test purposes: The following method was used to determine the pharmacokinetics of the compound of the present invention. […] Samples were processed by liquid-liquid extraction, chromatographically separated, quantitatively analyzed by multiple reaction ion monitoring (MRM) on a triple quadrupole tandem mass spectrometer, and the concentration of the results was calculated by instrument quantitative software. […]
MEASURED ATTRIBUTE: F (%)

In [3]: df
Out[3]:
                            smiles_notation  result_number
0  O=C1c2ccc(Oc3c(Cl)cc(-n4ncc(=O)[nH]c4=O)cc3Cl)cc2CCN1Cc1ccccn1          126.5
1  O=C1c2ccc(Oc3c(Cl)cc(-n4ncc(=O)[nH]c4=O)cc3Cl)cc2CCN1Cc1cccc(OC(F)(F)F)c1           68.4
2  O=C1c2ccc(Oc3c(Cl)cc(-n4ncc(=O)[nH]c4=O)cc3Cl)cc2CCN1Cc1ccc(Cl)cc1          116.3
3  O=C1c2ccc(Oc3c(Cl)cc(-n4ncc(=O)[nH]c4=O)cc3Cl)cc2CCN1c1ccc(F)cc1           97.6
4  O=C1c2ccc(Oc3c(Cl)cc(-n4ncc(=O)[nH]c4=O)cc3Cl)cc2CCN1Cc1ccc(F)cc1          115.1

###

Recorded clearance values for a group of compounds are listed next.
- PROTOCOL: Pharmacokinetic determination in SD rats (i.v. and i.g.)
- Type: in vivo
- CONDITION DESCRIPTION: male, Sprague-Dawley (SD), rat, plasma, iv, 1 mg/kg
- Procedure: Test purposes: The following method was used to determine the pharmacokinetics of the compound of the present invention. […] Samples were processed by liquid-liquid extraction, chromatographically separated, quantitatively analyzed by multiple reaction ion monitoring (MRM) on a triple quadrupole tandem mass spectrometer, and the concentration of the results was calculated by instrument quantitative software. […]
MEASURED ATTRIBUTE: clearance (mL/min/kg)

                            smiles_notation  measured_attribute  unit_descriptor  result_number
0  O=C1c2ccc(Oc3c(Cl)cc(-n4ncc(=O)[nH]c4=O)cc3Cl)cc2CCN1Cc1cccnc1           clearance        mL/min/kg           6.65
1  O=C1c2ccc(Oc3c(Cl)cc(-n4ncc(=O)[nH]c4=O)cc3Cl)cc2CCN1c1cccc(F)c1           clearance        mL/min/kg           8.49
2  Cc1ccc(CN2CCc3cc(Oc4c(Cl)cc(-n5ncc(=O)[nH]c5=O)cc4Cl)ccc3C2=O)cc1           clearance        mL/min/kg           16.3
3  O=C1c2ccc(Oc3c(Cl)cc(-n4ncc(=O)[nH]c4=O)cc3Cl)cc2CCN1Cc1cccc(C(F)(F)F)c1           clearance        mL/min/kg          0.744

###

- PROTOCOL: Pharmacokinetic determination in SD rats (i.v. and i.g.)
- Type: in vivo
- CONDITION DESCRIPTION: male, Sprague-Dawley (SD), rat, plasma, po, ig, 5 mg/kg
MEASURED ATTRIBUTE: AUC(0-t) (ng·h/mL)

>>> print(df.to_string())
                            smiles_notation  measured_attribute  result_number
0  O=C1c2ccc(Oc3c(Cl)cc(-n4ncc(=O)[nH]c4=O)cc3Cl)cc2CCN1Cc1ccc(F)cc1            AUC(0-t)          93700
1  O=C1c2ccc(Oc3c(Cl)cc(-n4ncc(=O)[nH]c4=O)cc3Cl)cc2CCN1Cc1cccnc1            AUC(0-t)          20300
2  O=C1c2ccc(Oc3c(Cl)cc(-n4ncc(=O)[nH]c4=O)cc3Cl)cc2CCN1c1cccnc1            AUC(0-t)          25300
3  O=C1c2ccc(Oc3c(Cl)cc(-n4ncc(=O)[nH]c4=O)cc3Cl)cc2CCN1c1ccccc1F            AUC(0-t)          13900
4  Cc1ccc(CN2CCc3cc(Oc4c(Cl)cc(-n5ncc(=O)[nH]c5=O)cc4Cl)ccc3C2=O)cc1            AUC(0-t)           4160
5  O=C1c2ccc(Oc3c(Cl)cc(-n4ncc(=O)[nH]c4=O)cc3Cl)cc2CCN1Cc1cccc(OC(F)(F)F)c1            AUC(0-t)         134000
6  O=C1c2ccc(Oc3c(Cl)cc(-n4ncc(=O)[nH]c4=O)cc3Cl)cc2CCN1Cc1cccc(C(F)(F)F)c1            AUC(0-t)         110000

###

- SYSTEM TESTED: TRβ (Homo sapiens, UniProt P10828)
- Construct: 5 μL of 4×TR beta/alfa-LBD; purchased Invitrogen PV4686
- Sequence (P10828 217-461 limits assumed): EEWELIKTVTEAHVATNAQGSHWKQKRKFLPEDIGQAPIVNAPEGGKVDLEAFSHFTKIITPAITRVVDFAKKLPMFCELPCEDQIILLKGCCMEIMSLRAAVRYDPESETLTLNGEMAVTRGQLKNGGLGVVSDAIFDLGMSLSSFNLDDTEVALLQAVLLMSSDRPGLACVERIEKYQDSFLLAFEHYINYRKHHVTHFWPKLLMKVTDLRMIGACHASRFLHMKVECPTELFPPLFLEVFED
- PROTOCOL: LanthaScreen TR-FRET Thyroid Receptor beta Coactivator Assay (in vitro binding activity)
- CONDITION DESCRIPTION: TR beta-LBD
Below, each entry is listed with its recorded EC50.
MEASURED ATTRIBUTE: EC50 (µM)

                                   compound  unit_descriptor  comparison_sign  result_number
0  N#Cc1nn(-c2cc(Cl)c(Oc3ccc4c(c3)CCCNC4=O)c(Cl)c2)c(=O)[nH]c1=O               µM                =          0.092
1  Cc1ccc(N2CCc3cc(Oc4c(Cl)cc(-n5nc(C#N)c(=O)[nH]c5=O)cc4Cl)ccc3C2=O)cc1               µM                =           0.14
2  O=C1c2ccc(Oc3c(Cl)cc(-n4ncc(=O)[nH]c4=O)cc3Cl)cc2CCN1Cc1cccc(C(F)(F)F)c1               µM                =          0.021
3  O=C1c2ccc(Oc3c(Cl)cc(-n4ncc(=O)[nH]c4=O)cc3Cl)cc2CCN1Cc1ccccc1F               µM                =          0.017
4  N#Cc1nn(-c2cc(Cl)c(Oc3ccc4c(c3)CCN(COCC(F)(F)F)C4=O)c(Cl)c2)c(=O)[nH]c1=O               µM                =           0.03
5  O=C1c2ccc(Oc3c(Cl)cc(-n4ncc(=O)[nH]c4=O)cc3Cl)cc2CCN1Cc1ccc(F)c(F)c1               µM                =         0.0062
6  N#Cc1nn(-c2cc(Cl)c(Oc3ccc4c(c3)CCN(c3ncccn3)C4=O)c(Cl)c2)c(=O)[nH]c1=O [Example 50f]               µM                =          0.213
7  Cc1ccc(F)cc1CN1CCc2cc(Oc3c(Cl)cc(-n4ncc(=O)[nH]c4=O)cc3Cl)ccc2C1=O               µM                <         0.0046
8  CCN1CCc2cc(Oc3c(Cl)cc(-n4nc(C#N)c(=O)[nH]c4=O)cc3Cl)ccc2C1=O               µM                =          0.014

###

- PROTOCOL: Pharmacokinetic determination in SD rats (i.v. and i.g.)
- Format: in vivo
- CONDITION DESCRIPTION: male, Sprague-Dawley (SD), rat, plasma, iv, 1 mg/kg
MEASURED ATTRIBUTE: Cmax (ng/mL)

>>> print(df.to_string())
                                    molecule  measured_attribute  unit_descriptor  result_number
 0  O=C1c2ccc(Oc3c(Cl)cc(-n4ncc(=O)[nH]c4=O)cc3Cl)cc2CCN1Cc1ccc(Cl)cc1 [Example 37]                Cmax            ng/mL           4200
 1  O=C1c2ccc(Oc3c(Cl)cc(-n4ncc(=O)[nH]c4=O)cc3Cl)cc2CCN1Cc1cccnc1 [Example 45]                Cmax            ng/mL           1780
 2  O=C1c2ccc(Oc3c(Cl)cc(-n4ncc(=O)[nH]c4=O)cc3Cl)cc2CCN1Cc1cccc(OC(F)(F)F)c1 [Example 43]                Cmax            ng/mL           3410
 3  O=C1c2ccc(Oc3c(Cl)cc(-n4ncc(=O)[nH]c4=O)cc3Cl)cc2CCN1Cc1ccc(F)cc1 [Example 20]                Cmax            ng/mL           3990
 4  O=C1c2ccc(Oc3c(Cl)cc(-n4ncc(=O)[nH]c4=O)cc3Cl)cc2CCN1Cc1ccncc1 [Example 24]                Cmax            ng/mL           4020
 5  Cc1ccc(CN2CCc3cc(Oc4c(Cl)cc(-n5ncc(=O)[nH]c5=O)cc4Cl)ccc3C2=O)cc1 [Example 21]                Cmax            ng/mL           2760
 6  O=C1c2ccc(Oc3c(Cl)cc(-n4ncc(=O)[nH]c4=O)cc3Cl)cc2CCN1Cc1cccc(C(F)(F)F)c1 [Example 34]                Cmax            ng/mL           3020
 7  O=C1c2ccc(Oc3c(Cl)cc(-n4ncc(=O)[nH]c4=O)cc3Cl)cc2CCN1c1ccc(F)cc1 [Example 28]                Cmax            ng/mL           8400
 8  O=C1c2ccc(Oc3c(Cl)cc(-n4ncc(=O)[nH]c4=O)cc3Cl)cc2CCN1c1cccc(F)c1 [Example 42]                Cmax            ng/mL           4340
 9  O=C1c2ccc(Oc3c(Cl)cc(-n4ncc(=O)[nH]c4=O)cc3Cl)cc2CCN1c1ccccc1F [Example 44]                Cmax            ng/mL           5430
10  O=C1c2ccc(Oc3c(Cl)cc(-n4ncc(=O)[nH]c4=O)cc3Cl)cc2CCN1Cc1ccc(C(F)(F)F)cc1 [Example 29]                Cmax            ng/mL           4270
11  O=C1c2ccc(Oc3c(Cl)cc(-n4ncc(=O)[nH]c4=O)cc3Cl)cc2CCN1c1cccnc1 [Example 49]                Cmax            ng/mL           5300
12  O=C1c2ccc(Oc3c(Cl)cc(-n4ncc(=O)[nH]c4=O)cc3Cl)cc2CCN1Cc1ccccn1 [Example 46]                Cmax            ng/mL           4160
